Values from ChEMBL document CHEMBL4270570

assay.system: Human immunodeficiency virus type 1 reverse transcriptase (Human immunodeficiency virus 1, UniProt Q72547)
assay.endpoint: pIC50
Schema: pIC50 number; meaning minus log10 of the concentration expressed in molar units.

Data request: Look up pIC50 of O=c1cc(Sc2ccccc2Br)[nH]c(=O)n1O and report it.
Data returned: 8.10

Data request: Indicate its recorded pIC50; the molecule in question is O=c1cc(Sc2cccc(-c3ccc(C(F)(F)F)cc3)c2)[nH]c(=O)n1O
Data returned: 8.15

Data request: For the molecule O=c1cc(Sc2ccc(C(F)(F)F)cc2)[nH]c(=O)n1O , give its measured pIC50 value.
Data returned: 7.51

Data request: Using the record for O=c1cc(Sc2cccc(-c3ccc(Cl)cc3)c2)[nH]c(=O)n1O , state its measured pIC50.
Data returned: 8.30

Data request: Name the recorded pIC50 of the item O=c1cc(Sc2cccc(-c3cccc(F)c3)c2)[nH]c(=O)n1O in your answer.
Data returned: 8.22

Data request: Return value of pIC50 for input O=c1cc(Sc2ccc(Cl)cc2)[nH]c(=O)n1O , no commentary.
Data returned: 7.92

Data request: Tell me pIC50 reported for O=c1cc(Sc2ccccc2-c2ccc(F)cc2)[nH]c(=O)n1O
Data returned: 7.92

Data request: Identify measured pIC50 corresponding to O=c1cc(Sc2ccc(-c3ccc(O)cc3)cc2)[nH]c(=O)n1O
Data returned: 8.40

Data request: Output pIC50 of CCc1ccccc1Sc1cc(=O)n(O)c(=O)[nH]1
Data returned: 8.00

Data request: Tell me pIC50 reported for O=c1cc(Sc2cccc3ccccc23)[nH]c(=O)n1O
Data returned: 8.15

Data request: Report measured pIC50; entry is O=c1cc(Sc2cccc(C(F)(F)F)c2)[nH]c(=O)n1O
Data returned: 7.89

Data request: Let me know recorded pIC50 for O=c1cc(Sc2cccc(Cl)c2)[nH]c(=O)n1O , thanks.
Data returned: 7.96

Data request: Supply pIC50 value. Item: Cc1cc(-c2ccc(Sc3cc(=O)n(O)c(=O)[nH]3)cc2)ccc1F
Data returned: 8.30

Data request: Supply measured pIC50 of Cc1ccc(-c2ccc(Sc3cc(=O)n(O)c(=O)[nH]3)cc2)cc1 in your reply.
Data returned: 8.22

Data request: Retrieve pIC50 measured for O=c1cc(Sc2ccccc2C(F)(F)F)[nH]c(=O)n1O and print it.
Data returned: 7.92

Data request: Supply pIC50 value. Item: O=c1cc(Sc2cccc(-c3ccc(F)c(Cl)c3)c2)[nH]c(=O)n1O
Data returned: 8.30

Data request: Answer with the recorded pIC50 of O=c1cc(Sc2cccc(-c3ccc(F)cc3)c2)[nH]c(=O)n1O only.
Data returned: 8.30

Data request: Determine from records and report pIC50 for O=c1cc(Sc2ccc(-c3ccc(F)cc3)cc2)[nH]c(=O)n1O
Data returned: 8.22
